assay: Mouse blood levels; details: mouse, blood, po, 20 mg/kg
property: Cmax (ng/mL)
Expressed in ng/mL, but write only the number.

[ask] Could you share which Cmax value was measured for C/C=C\C1=C(C(=O)O)N2C(=O)C(NC(=O)[C@H](N)c3cccc(O)c3)[C@H]2SC1 (stereo partly shown) [BMY-28272] ?
[reply] 9600

* * *

# MIC measurements, system: S. aureus A9497

[ask] // lookup MIC for N[C@@H](C(=O)N[C@@H]1C(=O)N2C(C(=O)O)=C(Cl)CS[C@H]12)c1ccccc1 [cefaclor]
[reply] 0.8 µg/mL

[ask] Cool, now CC1=C(C(=O)O)N2C(=O)[C@@H](NC(=O)[C@H](N)c3ccccc3)[C@H]2SC1 [cephalexin]
[reply] 1.6 µg/mL

[ask] Now give it for C/C=C\C1=C(C(=O)O)N2C(=O)C(NC(=O)[C@H](N)c3ccc(O)cc3)[C@H]2SC1 (stereo partly shown) [BMY-28100] too.
[reply] 0.4 µg/mL

[ask] Same again, this time with C/C=C\C1=C(C(=O)O)N2C(=O)C(NC(=O)[C@H](N)c3cccc(O)c3)[C@H]2SC1 (stereo partly shown) [BMY-28272]
[reply] 0.4 µg/mL

The reported numbers originate from patent US4619925A.
